Entries and their koff values follow.
# SYSTEM: T1, human IL-21R extracellular domain His-Flag fusion protein (human, UniProt Q9HBE5 20-232)
# T1 construct: Biotinylated in the HTRF screen; also called hIL-21R-H/F; human IL-21R-H/F
# T1 sequence (Q9HBE5 20-232): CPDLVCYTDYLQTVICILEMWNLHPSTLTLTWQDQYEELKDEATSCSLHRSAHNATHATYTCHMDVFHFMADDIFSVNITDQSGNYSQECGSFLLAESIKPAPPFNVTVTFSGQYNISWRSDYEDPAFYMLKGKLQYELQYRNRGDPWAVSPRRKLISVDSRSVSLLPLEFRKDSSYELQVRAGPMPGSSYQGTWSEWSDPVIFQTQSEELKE
# ASSAY_OVERVIEW: SPR, Ab captured on anti-human IgG
Respond with the bare value in s⁻¹.

These solved cases illustrate the format of a correct answer.
BINDER	koff [s⁻¹]
AbP (antibody, human IgG1, V domains shown, CDR3 graft, residue limits derived as for m29; also called VHP/VL20; VHPTM/VL20) VH: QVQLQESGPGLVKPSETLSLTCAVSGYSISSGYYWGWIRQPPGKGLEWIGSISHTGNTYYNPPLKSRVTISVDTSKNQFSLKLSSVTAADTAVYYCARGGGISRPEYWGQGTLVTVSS VL: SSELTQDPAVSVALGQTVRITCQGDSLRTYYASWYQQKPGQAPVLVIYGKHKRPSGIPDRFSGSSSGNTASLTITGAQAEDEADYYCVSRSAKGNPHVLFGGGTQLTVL	0.000119
AbR (antibody, human IgG1, V domains shown, CDR3 graft, residue limits derived as for m29; also called VH3/VL18; VH3DM/VL18) VH: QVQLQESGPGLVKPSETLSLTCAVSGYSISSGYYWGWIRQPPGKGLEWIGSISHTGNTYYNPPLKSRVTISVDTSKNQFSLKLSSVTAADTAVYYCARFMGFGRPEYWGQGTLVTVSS VL: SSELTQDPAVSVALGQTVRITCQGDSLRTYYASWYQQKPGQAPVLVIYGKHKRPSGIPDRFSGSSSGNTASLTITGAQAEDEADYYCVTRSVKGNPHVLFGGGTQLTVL	9.61e-05
AbU (antibody, human IgG1, V domains shown, CDR3 graft, residue limits derived as for m29; also called VHP/VL25; VHPTM/VL25) VH: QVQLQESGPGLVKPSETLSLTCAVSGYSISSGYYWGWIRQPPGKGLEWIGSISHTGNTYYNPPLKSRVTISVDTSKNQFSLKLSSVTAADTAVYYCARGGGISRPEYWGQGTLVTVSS VL: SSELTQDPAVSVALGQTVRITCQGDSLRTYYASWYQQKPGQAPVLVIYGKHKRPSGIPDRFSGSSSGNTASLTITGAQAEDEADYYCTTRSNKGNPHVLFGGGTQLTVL	8.18e-05
AbO (antibody, human IgG1, V domains shown, CDR3 graft, residue limits derived as for m29; also called VHP/VL16; VHPTM/VL16) VH: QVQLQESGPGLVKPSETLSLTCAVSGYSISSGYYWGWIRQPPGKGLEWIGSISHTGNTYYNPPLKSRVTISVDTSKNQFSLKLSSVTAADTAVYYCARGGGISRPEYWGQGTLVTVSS VL: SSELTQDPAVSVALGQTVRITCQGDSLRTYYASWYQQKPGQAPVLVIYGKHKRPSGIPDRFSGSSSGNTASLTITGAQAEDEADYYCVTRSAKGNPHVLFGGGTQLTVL	0.000114

Then there is this binder:
## Task Please report koff for the following binder: parental 18A5 antibody (antibody, V domains shown, also called 18A5 IgG) VH: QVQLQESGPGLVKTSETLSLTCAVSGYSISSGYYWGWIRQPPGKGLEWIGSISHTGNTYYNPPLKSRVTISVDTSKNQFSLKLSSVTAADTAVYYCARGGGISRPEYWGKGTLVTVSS VL: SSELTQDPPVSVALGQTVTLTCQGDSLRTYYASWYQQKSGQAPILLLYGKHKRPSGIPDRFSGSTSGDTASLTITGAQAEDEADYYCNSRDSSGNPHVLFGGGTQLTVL
## Result 0.00108
